Each item that follows carries a reported pKi.
target: human glucocorticoid receptor-α [GRX] isoform (Homo sapiens, UniProt P04150); construct: purchased Ligand Pharmaceuticals (San Diego, CA); host or cells: insect SF21 cells (baculovirus); test: glucocorticoid receptor (GR) cytosol binding assay, [3H]-dexamethasone competition
pKi: −log10 of the molar value.

| COMPOUND | pKi |
| --- | --- |
| Cc1ccccc1C(c1ccc(N(C)C)cc1)c1ccc(N(C)C)cc1 [Example 15] | 5.53 |
| CCCCN(CCCC)c1ccc(C(c2ccc(N(C)C)cc2)c2cc([N+](=O)[O-])ccc2Cl)cc1 (centres unmarked) [Example 43] | 5.35 |
| CN(C)c1ccc(C(c2ccc(N(C)CCOC(=O)c3ccccc3)cc2)c2cc([N+](=O)[O-])ccc2Cl)cc1 (centres unmarked) [Example 50] | 5.79 |
| CN(C)c1ccc(C(c2ccc(N(C)C)cc2)c2c(Cl)cccc2Cl)cc1 [Example 20] | 5.71 |
| CN(C)c1ccc(C(c2ccc(N(C)C)cc2)c2cc(Cl)cc(Cl)c2Cl)cc1 [Example 16] | 6.32 |
| CN(C)c1ccc(C(c2ccc(N3CCOCC3)cc2)c2cc([N+](=O)[O-])ccc2Cl)cc1 (centres unmarked) [Example 40] | 6.60 |
| CN(C)c1ccc(C(c2ccc(N(C)C)cc2)c2ccccc2C(F)(F)F)cc1 [Example 10] | 5.65 |
| CN(C)c1ccc(C(c2ccc(N3CCCC3)cc2)c2cc([N+](=O)[O-])ccc2Cl)cc1 (centres unmarked) [Example 41] | 5.35 |

----------
// Ki lookup, one value per entry
Target: human glucocorticoid receptor-α [GRX] isoform (Homo sapiens, UniProt P04150)
Construct: purchased Ligand Pharmaceuticals (San Diego, CA); host or cells: insect SF21 cells (baculovirus)
Sequence (P04150 1-777): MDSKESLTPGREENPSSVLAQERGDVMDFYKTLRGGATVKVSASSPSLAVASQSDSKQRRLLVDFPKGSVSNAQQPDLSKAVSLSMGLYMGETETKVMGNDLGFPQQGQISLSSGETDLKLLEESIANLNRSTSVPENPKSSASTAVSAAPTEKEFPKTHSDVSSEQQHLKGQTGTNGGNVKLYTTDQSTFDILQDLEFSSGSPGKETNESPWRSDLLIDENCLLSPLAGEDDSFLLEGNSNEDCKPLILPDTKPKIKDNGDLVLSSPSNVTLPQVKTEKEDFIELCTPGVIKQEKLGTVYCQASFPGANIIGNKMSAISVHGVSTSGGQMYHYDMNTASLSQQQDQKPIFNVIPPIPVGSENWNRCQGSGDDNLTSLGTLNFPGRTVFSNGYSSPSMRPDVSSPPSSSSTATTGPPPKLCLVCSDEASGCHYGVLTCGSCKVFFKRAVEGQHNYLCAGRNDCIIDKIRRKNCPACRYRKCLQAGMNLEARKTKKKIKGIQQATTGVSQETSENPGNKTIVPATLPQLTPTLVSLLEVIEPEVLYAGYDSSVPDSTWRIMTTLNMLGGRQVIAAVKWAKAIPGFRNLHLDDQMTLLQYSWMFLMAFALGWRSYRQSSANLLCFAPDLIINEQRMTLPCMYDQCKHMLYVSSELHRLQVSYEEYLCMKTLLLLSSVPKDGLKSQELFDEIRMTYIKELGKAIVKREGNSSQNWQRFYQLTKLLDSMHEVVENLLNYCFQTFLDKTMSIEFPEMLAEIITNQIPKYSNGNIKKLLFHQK
Experiment: glucocorticoid receptor (GR) cytosol binding assay, [3H]-dexamethasone competition
MEASURED PARAMETER: Ki (nM)

| COMPOUND | ASSAY RESULT |
| --- | --- |
| CN(C)c1ccc(C(c2ccc(N3CCCCC3)cc2)c2cc([N+](=O)[O-])ccc2Cl)cc1 (stereo not shown) | 1160 |
| CN(C)c1ccc(C(c2ccc(N(C)C)cc2)c2cc(Cl)ccc2Cl)cc1 | 306 |
| CNc1ccc(C(c2ccc(N(C)C)cc2)c2cc([N+](=O)[O-])ccc2Cl)cc1 (stereo not shown) | 127 |
| CN(C)c1ccc(C(c2ccc(N(C)C)cc2)c2ccccc2Br)cc1 | 1510 |

----------
molecular target: human glucocorticoid receptor-α [GRX] isoform (Homo sapiens); construct: purchased Ligand Pharmaceuticals (San Diego, CA); host or cells: insect SF21 cells (baculovirus); assay: glucocorticoid receptor (GR) cytosol binding assay, [3H]-dexamethasone competition
pKi: −log10 of the molar value.
Please mark True if the recorded pKi is equal to or greater than 6, and False if it falls below.

| COMPOUND | DISCRETE LABEL |
| --- | --- |
| CN(C)c1ccc(C(c2ccc(N(C)C)cc2)c2cc3c(cc2Cl)OCO3)cc1 | False |
| CN(C)c1ccc(C(c2ccc(N(C)C)cc2)c2ccc(Cl)cc2Cl)cc1 | False |
| CC(=O)OCCN(C)c1ccc(C(c2ccc(N(C)C)cc2)c2cc([N+](=O)[O-])ccc2Cl)cc1 (centres unmarked) | True |
| COc1ccc(C(c2ccc(N(C)C)cc2)c2ccc(N(C)C)cc2)cc1 | False |
| CN(C)c1ccc(C(c2ccc(N(C)C)cc2)c2ccccc2F)cc1 | False |
| CN(C)c1ccc(C(c2ccc(N(C)C)cc2)c2cc(I)ccc2Cl)cc1 | False |
| CN(C)c1ccc(C(c2ccc(N(C)C)cc2)c2cc(C(F)(F)F)ccc2Cl)cc1 | False |
| Cc1cc(C(c2ccc(N(C)C)cc2)c2cc([N+](=O)[O-])ccc2Cl)ccc1N(C)C (centres unmarked) | True |

----------
Measured Ki, listed per entry for reference.
Target: human glucocorticoid receptor-α [GRX] isoform (Homo sapiens)
Construct: purchased Ligand Pharmaceuticals (San Diego, CA); host or cells: insect SF21 cells (baculovirus)
Sequence (P04150 1-777): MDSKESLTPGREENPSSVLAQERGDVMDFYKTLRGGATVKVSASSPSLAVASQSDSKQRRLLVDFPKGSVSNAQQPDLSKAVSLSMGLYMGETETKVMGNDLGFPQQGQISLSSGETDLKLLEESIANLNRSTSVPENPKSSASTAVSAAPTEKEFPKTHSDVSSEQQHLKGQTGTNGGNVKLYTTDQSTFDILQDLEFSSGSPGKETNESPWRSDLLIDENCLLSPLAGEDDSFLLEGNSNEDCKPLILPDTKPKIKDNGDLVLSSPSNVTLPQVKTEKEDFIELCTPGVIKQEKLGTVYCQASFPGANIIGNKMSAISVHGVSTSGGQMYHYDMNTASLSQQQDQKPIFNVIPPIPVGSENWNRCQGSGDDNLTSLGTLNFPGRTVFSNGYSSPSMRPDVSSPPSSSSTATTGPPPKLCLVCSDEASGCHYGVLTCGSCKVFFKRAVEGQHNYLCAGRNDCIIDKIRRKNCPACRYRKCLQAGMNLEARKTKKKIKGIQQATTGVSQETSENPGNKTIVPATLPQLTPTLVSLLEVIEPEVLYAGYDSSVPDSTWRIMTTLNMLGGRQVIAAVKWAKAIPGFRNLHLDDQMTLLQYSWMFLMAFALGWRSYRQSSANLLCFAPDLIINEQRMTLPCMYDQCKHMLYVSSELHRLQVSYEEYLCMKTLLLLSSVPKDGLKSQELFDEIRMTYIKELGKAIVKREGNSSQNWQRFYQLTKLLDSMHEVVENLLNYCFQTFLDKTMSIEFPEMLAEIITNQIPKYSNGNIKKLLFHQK
Assay: glucocorticoid receptor (GR) cytosol binding assay, [3H]-dexamethasone competition
Details: [3H]-Dex ~0.9 nM, GRX cytosol, 4 °C overnight; Cheng-Prusoff; read-out: Ki (nM) GR

| STRUCTURE | Ki [nM] |
| --- | --- |
| CN(C)c1ccc(C(c2ccc(N(C)C)cc2)c2cccc(Cl)c2)cc1 | 2520 |
| CN(C)c1ccc(C(c2ccc(N(C)C)cc2)c2ccccc2Cl)cc1 | 1990 |
| COC(=O)Nc1ccc(Cl)c(C(c2ccc(N(C)C)cc2)c2ccc(N(C)C)cc2)c1 | 5270 |
| CNc1ccc(C(c2ccc(NC)cc2)c2cc([N+](=O)[O-])ccc2Cl)cc1 | 60 |
| CN(C)c1ccc(C(c2ccc(N(C)C)cc2)c2cc(N)ccc2Cl)cc1 | 4600 |
| CN(C)c1ccc(C(c2ccc(N(C)C)cc2)c2cc(NCc3ccco3)ccc2Cl)cc1 | 757 |
| CN(C)c1ccc(C(c2ccc(N(C)C)cc2)c2cc(N=Cc3ccco3)ccc2Cl)cc1 | 1790 |

----------
Molecular target: human progesterone receptor-A [PRA] isoform (Homo sapiens, UniProt P06401)
Construct: purchased Ligand Pharmaceuticals (San Diego, CA); host or cells: insect SF21 cells (baculovirus)
Sequence (P06401 1-769 isoform P06401-2): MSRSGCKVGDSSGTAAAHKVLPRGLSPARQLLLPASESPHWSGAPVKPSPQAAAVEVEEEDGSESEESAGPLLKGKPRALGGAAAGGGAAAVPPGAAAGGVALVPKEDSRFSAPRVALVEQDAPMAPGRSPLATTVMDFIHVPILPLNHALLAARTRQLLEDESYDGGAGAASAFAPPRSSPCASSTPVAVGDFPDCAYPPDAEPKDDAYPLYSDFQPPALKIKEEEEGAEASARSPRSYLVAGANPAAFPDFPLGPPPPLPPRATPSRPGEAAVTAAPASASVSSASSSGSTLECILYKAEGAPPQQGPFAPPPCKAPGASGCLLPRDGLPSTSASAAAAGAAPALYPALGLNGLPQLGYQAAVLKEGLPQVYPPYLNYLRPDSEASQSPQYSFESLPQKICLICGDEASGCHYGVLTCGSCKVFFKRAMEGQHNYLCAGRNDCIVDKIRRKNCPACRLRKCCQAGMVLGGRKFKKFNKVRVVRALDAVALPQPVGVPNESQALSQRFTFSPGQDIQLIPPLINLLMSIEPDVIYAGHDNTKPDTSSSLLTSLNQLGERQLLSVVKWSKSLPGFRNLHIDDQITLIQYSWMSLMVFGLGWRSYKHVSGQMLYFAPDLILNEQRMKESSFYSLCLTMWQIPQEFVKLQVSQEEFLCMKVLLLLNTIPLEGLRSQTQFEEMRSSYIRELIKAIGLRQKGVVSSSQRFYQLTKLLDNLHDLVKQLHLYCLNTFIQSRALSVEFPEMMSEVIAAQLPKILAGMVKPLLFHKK
Experiment: progesterone receptor cytosol (PR) binding assay, [3H]-progesterone competition
Details: [3H]Prog ~0.8 nM, 4 °C overnight, Cheng-Prusoff
MEASURED PARAMETER: Ki (nM)

| COMPOUND | MEASURED PARAMETER | RESULT QUALIFIER | ASSAY RESULT |
| --- | --- | --- | --- |
| CC(=O)OCCN(C)c1ccc(C(c2ccc(N(C)CCOC(C)=O)cc2)c2cc([N+](=O)[O-])ccc2Cl)cc1 | Ki | = | 2680 |
| CNc1ccc(C(c2ccc(N(C)C)cc2)c2cc([N+](=O)[O-])ccc2Cl)cc1 (stereo not shown) | Ki | = | 510 |
| CN(C)c1ccc(C(c2ccc(N(C)C)cc2)c2cc(Cl)ccc2Cl)cc1 | Ki | = | 2590 |
| CN(C)c1ccc(C(Sc2ccccc2)c2cc([N+](=O)[O-])ccc2Cl)cc1 (stereo not shown) | Ki | = | 2590 |
| CN(C)c1ccc(C(Oc2ccccc2)c2cc([N+](=O)[O-])ccc2Cl)cc1 (stereo not shown) | Ki | = | 698 |
| CN(C)c1ccc(C(c2ccc(N(C)C)cc2)c2cc([N+](=O)[O-])ccc2Cl)cc1 | Ki | > | 10000 |
| CN(C)c1ccc(C(c2ccc(N(C)CCO)cc2)c2cc([N+](=O)[O-])ccc2Cl)cc1 (stereo not shown) | Ki | = | 187 |

These entries and their values trace back to patent EP1100483B1.
